- target.entity: T1, human CD24 (human, UniProt P25063 27-59, heavily glycosylated, GPI-anchored (as described in the background))
- T1 construct: whole, on cells; Target of all cell-based FACS assays; also called hCD24; Cluster of differentiation 24
- T1 chain (looked up): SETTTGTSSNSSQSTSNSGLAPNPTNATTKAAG
- test.method.notes: FACS, 5637 cells
experimental.endpoint: EC50 (nM)

INSERT INTO measurements (binder, recorded_result) VALUES
  ('58F10-1F6 (antibody, V domains shown, mouse monoclonal antibody) VH: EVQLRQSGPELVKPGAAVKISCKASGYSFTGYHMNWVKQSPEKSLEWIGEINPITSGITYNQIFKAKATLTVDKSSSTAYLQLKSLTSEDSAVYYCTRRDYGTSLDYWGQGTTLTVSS VL: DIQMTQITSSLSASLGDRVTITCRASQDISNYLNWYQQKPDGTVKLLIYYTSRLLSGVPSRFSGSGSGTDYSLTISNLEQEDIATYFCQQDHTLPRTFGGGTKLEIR', 22.4),
  ('73H5-1G2 (antibody, V domains shown, mouse monoclonal antibody) VH: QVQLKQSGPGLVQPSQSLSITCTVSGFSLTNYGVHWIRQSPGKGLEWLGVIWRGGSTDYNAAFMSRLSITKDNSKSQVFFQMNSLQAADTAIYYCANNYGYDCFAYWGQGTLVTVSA VL: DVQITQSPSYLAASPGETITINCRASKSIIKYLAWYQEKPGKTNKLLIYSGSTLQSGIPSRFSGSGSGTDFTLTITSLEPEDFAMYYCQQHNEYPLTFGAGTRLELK', 24.6);

Source of measurements: patent US20240052052A1
